Test system: BVDV
TEST: BVDV antiviral assay in MDBK cells, XTT readout of inhibition of virus-induced cell killing
Type: cell-based
EXPERIMENTAL PARAMETERS: BVDV in MDBK cells
READOUT NAME: IC50 (U/ml)
Answer with a number only, understood to be in U/ml.

In: Please give the measured IC50 for this molecule: INF-α H2: human IFN-α species H2 (protein, UniProt P01570 24-189, looked up) Interferon alpha-14: CNLSQTHSLNNRRTLMLMAQMRRISPFSCLKDRHDFEFPQEEFDGNQFQKAQAISVLHEMMQQTFNLFSTKNSSAAWDETLLEKFYIELFQQMNDLEACVIQEVGVEETPLMNEDSILAVKKYFQRITLYLMEKKYSPCAWEVVRAEIMRSLSFSTNLQKRLRRKD
Out: 7.00
